Data provenance: patent US5300279A

Would you mind telling me the reported % Dose in Blood of each entry?
- TEST_DESCRIPTION: biolocalization of the radionuclide in rats (tissue distribution after tail vein injection)
- Assay type: in vivo, male Sprague Dawley rats
- DETAILS: Yb-175; rats; two hour; average of 5 rats
Record the value in % Dose, omitting the unit from your answer.

# input Endpoint output: % Dose in Blood of O=P(O)(O)CN(CCN(CP(=O)(O)O)CP(=O)(O)O)CP(=O)(O)O.[175Yb+3] . Value?
# output 0.074

# input Please give the measured % Dose in Blood for this compound: O=P(O)(O)CN(CCO)CCN(CP(=O)(O)O)CP(=O)(O)O.[175Yb+3]
# output 0.231

# input Which % Dose in Blood value belongs to O=P(O)(O)CN(CP(=O)(O)O)CP(=O)(O)O.[175Yb+3] ?
# output 0.204

# input Query: % Dose in Blood; subject: O=P(O)(O)CN(CCN(CP(=O)(O)O)CP(=O)(O)O)CCN(CP(=O)(O)O)CP(=O)(O)O.[175Yb+3]
# output 0.116

====

- TEST_DESCRIPTION: biolocalization of the radionuclide in rats (tissue distribution after tail vein injection)
- Type: in vivo, male Sprague Dawley rats
- DETAILS: Sm-153; rats; 2 hours; average of 5 rats
ENDPOINT_NAME: % Dose in Skeleton (% Dose)
Enter your answer as a number in % Dose; do not include the unit.

# input Please look up its % Dose in Skeleton: O=P([O-])(O)CN(CCN(CP(=O)([O-])O)CP(=O)(O)O)CP(=O)([O-])O.[153Sm+3] [Example 2]
# output 58

# input What value of % Dose in Skeleton has been recorded for this entry: O=P(O)(O)CN(CCN(CCN(CP(=O)(O)O)CP(=O)(O)O)CCN(CP(=O)(O)O)CP(=O)(O)O)CP(=O)(O)O.[153Sm+3] [Example 8]
# output 28

# input Returns the measured % Dose in Skeleton for the input compound. Input: O=P(O)(O)CN(CCO)CCN(CP(=O)(O)O)CP(=O)(O)O.[153Sm+3] [Example 6]
# output 57

# input I am curious: what % Dose in Skeleton value has been reported for O=P(O)(O)CN(CCN(CP(=O)(O)O)CP(=O)(O)O)CCN(CP(=O)(O)O)CP(=O)(O)O.[153Sm+3] [Example 4] ?
# output 30

====

- TEST_DESCRIPTION: biolocalization of the radionuclide in rats (tissue distribution after tail vein injection)
- Format: in vivo, male Sprague Dawley rats
- DETAILS: Ho-166; two hours; comparative; ratio of percent dose per gram
ENDPOINT_NAME: Bone/Blood
Number, no unit, nothing else.

# input Return reported Bone/Blood; argument: O=P(O)(O)OP(=O)(O)O.[166Ho+3] [Ho-166 PYP, reference compound]
# output 4

# input For O=P(O)(O)NP(=O)(O)O.[166Ho+3] [Ho-166 IDP, reference compound] , what is its reported Bone/Blood?
# output 6

# input Using the record for O=P(O)(O)C(O)P(=O)(O)O.[166Ho+3] [H0-166 HDP, reference compound] , report its Bone/Blood.
# output 4

# input Find the recorded Bone/Blood belonging to O=P(O)(O)CP(=O)(O)O.[166Ho+3] [Ho-166 MDP, reference compound] and report it.
# output 0.5

# input Please look up its Bone/Blood: CC(O)(P(=O)(O)O)P(=O)(O)O.[166Ho+3] [Ho-166 HEDP, reference compound]
# output 2

====

- TEST_DESCRIPTION: biolocalization of the radionuclide in rats (tissue distribution after tail vein injection)
- Format: in vivo, male Sprague Dawley rats
- DETAILS: Sm-153; two hours; comparative; average of 5 rats (MDP, HEDP), 3 rats (PYP, IDP)
ENDPOINT_NAME: % Dose In Bone

# input For O=P(O)(O)OP(=O)(O)O.[153Sm+3] [Sm-153 PYP, reference compound] , what is its reported % Dose In Bone?
# output 2 % Dose

# input Entry under review: CC(O)(P(=O)(O)O)P(=O)(O)O.[153Sm+3] [Sm-153 HEDP, reference compound] . Reported % Dose In Bone?
# output 21 % Dose

# input Reported % Dose In Bone for O=P(O)(O)NP(=O)(O)O.[153Sm+3] [Sm-153 IDP, reference compound] : what is it?
# output 0.6 % Dose

# input Name the reported % Dose In Bone value associated with the compound O=P(O)(O)CP(=O)(O)O.[153Sm+3] [Sm-153 MDP, reference compound]
# output 2 % Dose

====

- TEST_DESCRIPTION: biolocalization of the radionuclide in rats (tissue distribution after tail vein injection)
- Type: in vivo, male Sprague Dawley rats
- DETAILS: Sm-153; rats; 2 hours; average of 5 rats
Provide the recorded % Dose in Liver for the entries that follow.
Could you give me the number in % Dose? Just the number is fine.

# input Find the recorded % Dose in Liver belonging to O=P(O)(O)CN(CCO)CCN(CP(=O)(O)O)CP(=O)(O)O.[153Sm+3] and report it.
# output 0.45

# input Name the recorded % Dose in Liver for O=P(O)(O)CN(CCN(CP(=O)(O)O)CP(=O)(O)O)CCN(CP(=O)(O)O)CP(=O)(O)O.[153Sm+3] .
# output 0.27

# input Data request, read-out % Dose in Liver, for O=P([O-])(O)CN(CCN(CP(=O)([O-])O)CP(=O)(O)O)CP(=O)([O-])O.[153Sm+3]
# output 0.25

# input Given the molecule O=P(O)(O)CN(CCN(CCN(CP(=O)(O)O)CP(=O)(O)O)CCN(CP(=O)(O)O)CP(=O)(O)O)CP(=O)(O)O.[153Sm+3] , what is its reported % Dose in Liver?
# output 0.18

====

- TEST_DESCRIPTION: biolocalization of the radionuclide in rats (tissue distribution after tail vein injection)
- Assay type: in vivo, male Sprague Dawley rats
- DETAILS: Sm-153; rats; 2 hours; ratio of percent dose per gram; average of 5 rats
Field: Bone/Blood. Provide a value for each of the molecules that follow.
Enter the number alone.

# input So what does the record say about Bone/Blood for O=P([O-])(O)CN(CCN(CP(=O)([O-])O)CP(=O)(O)O)CP(=O)([O-])O.[153Sm+3] ?
# output 1800

# input Look up Bone/Blood for this molecule: O=P(O)(O)CN(CCO)CCN(CP(=O)(O)O)CP(=O)(O)O.[153Sm+3]
# output 1300

# input Consider the molecule shown here: O=P(O)(O)CN(CCN(CP(=O)(O)O)CP(=O)(O)O)CCN(CP(=O)(O)O)CP(=O)(O)O.[153Sm+3] What is its recorded Bone/Blood?
# output 224

# input Tell me the measured Bone/Blood of O=P(O)(O)CN(CCN(CCN(CP(=O)(O)O)CP(=O)(O)O)CCN(CP(=O)(O)O)CP(=O)(O)O)CP(=O)(O)O.[153Sm+3] , please.
# output 80

====

- TEST_DESCRIPTION: biolocalization of the radionuclide in rats (tissue distribution after tail vein injection)
- Format: in vivo, male Sprague Dawley rats
- DETAILS: Ho-166; two hours; comparative; ratio of percent dose per gram
ENDPOINT_NAME: Bone/Muscle
When you answer, write just the number.

# input compound: CC(O)(P(=O)(O)O)P(=O)(O)O.[166Ho+3] [Ho-166 HEDP, reference compound] ; wanted: its Bone/Muscle
# output 17

# input Look up Bone/Muscle for this compound: O=P(O)(O)OP(=O)(O)O.[166Ho+3] [Ho-166 PYP, reference compound]
# output 13

# input Need Bone/Muscle of O=P(O)(O)C(O)P(=O)(O)O.[166Ho+3] [H0-166 HDP, reference compound] , thanks.
# output 4

# input Please give the measured Bone/Muscle for this compound: O=P(O)(O)NP(=O)(O)O.[166Ho+3] [Ho-166 IDP, reference compound]
# output 17

# input Entry O=P(O)(O)CP(=O)(O)O.[166Ho+3] [Ho-166 MDP, reference compound] has what Bone/Muscle?
# output 6

====

- TEST_DESCRIPTION: biolocalization of the radionuclide in rats (tissue distribution after tail vein injection)
- Type: in vivo, male Sprague Dawley rats
- DETAILS: Ho-166; two hours; comparative; average of 2 rats (MDP, HEDP, PYP), 1 rat (IDP, HDP)
ENDPOINT_NAME: % Dose In Bone (% Dose)
Quick reminder: number only, in % Dose, skip the unit.

# input I am curious: what % Dose In Bone value has been reported for O=P(O)(O)OP(=O)(O)O.[166Ho+3] [Ho-166 PYP, reference compound] ?
# output 3

# input For the compound shown here, O=P(O)(O)CP(=O)(O)O.[166Ho+3] [Ho-166 MDP, reference compound] , give the reported % Dose In Bone.
# output 1

# input Find the recorded % Dose In Bone belonging to O=P(O)(O)C(O)P(=O)(O)O.[166Ho+3] [H0-166 HDP, reference compound] and report it.
# output 0.2

# input compound: CC(O)(P(=O)(O)O)P(=O)(O)O.[166Ho+3] [Ho-166 HEDP, reference compound] ; wanted: its % Dose In Bone
# output 25

# input Any idea what % Dose In Bone was measured for O=P(O)(O)NP(=O)(O)O.[166Ho+3] [Ho-166 IDP, reference compound] ?
# output 2
